Source of measurements: patent US20220233706A1

target: T1, HER2-Fc (UniProt P04626 23-652); assay: ELISA on plates coated with 10 µg/ml HER2-Fc, detection anti-T7 peroxidase conjugate, absorption at 450 nm
T1 construct: Coated at 10 µg/ml on ELISA plates; also called HER2 antigen; immobilised HER2 target antigen (ELISA); not shown: Fc part
readout: EC50 (read off the curve)

EC50 (read off the curve) reading for scFv (TCT)-Cemadotin ADC sample 2 (DAR 8.2) (scFv, Cemadotin on lysine residues, average DAR 8.2 by AAA, also called TCT-Cem ADC2; TCT-Cemadotin conjugate 2) scFv: SGSGGSGQVQLVQSGAEVKKPGESLKISCKGSGYSFTSYWIAWVRQMPGKGLEYMGLIYPGDSDTKYSPSFQGQVTISVDKSVSTAYLQWSSLKPSDSAVYFCARHDVGYCSSSNCAAWPEYFQHWGQGTLVTVSSGGGGSGGGGSGGGGSQSVLTQPPSVSAAPGQKVTISCSGSSSNIGNNYVSWYQQLPGTAPKLLIYGHTNRPAGVPDRFSGSKSGTSASLAISGFRSEDEADYYCAAWDDSLSGWVFGGGTKLTVLMASMTGGQQMG : ~20 nM
